Aspergillus fumigatus data, read-out MIC
Numbers only; they are read as µM.

Mol	Measured On	Units Label	Reported Value
CC(C)C[C@H](NC(=O)[C@H](CC(C)C)NC(=O)[C@H](CCCN=C(N)N)NC(=O)[C@H](CCCN=C(N)N)NC(=O)[C@H](C)NC(=O)[C@H](Cc1c[nH]c2ccccc12)NC(=O)[C@H](CCCN=C(N)N)NC(=O)[C@H](C)NC(=O)[C@H](C)NC(=O)[C@H](CCCN=C(N)N)NC(=O)[C@H](CCCN=C(N)N)NC(=O)[C@@H](N)CC(C)C)C(=O)N[C@@H](CCCN=C(N)N)C(=O)N[C@@H](CCCN=C(N)N)C(=O)O	Aspergillus fumigatus	µM	27

Response field MIC (Aspergillus fumigatus) for item `CC[C@H](C)[C@H](NC(=O)[C@H](CO)NC(=O)[C@H](CCCCN)NC(=O)[C@H](CC(C)C)NC(=O)[C@H](CCCN=C(N)N)NC(=O)[C@@H](N)CC(C)C)C(=O)N[C@H](C(=O)N[C@@H](CO)C(=O)N[C@@H](Cc1ccc(O)cc1)C(=O)N[C@@H](C)C(=O)N[C@@H](CCCCN)C(=O)N[C@@H](CCCCN)C(=O)N[C@H](C(=O)N[C@@H](CC(C)C)C(=O)O)C(C)C)C(C)C` : 11.9

Response field MIC (Aspergillus fumigatus) for item `CC[C@H](C)[C@H](NC(=O)[C@H](CCCCN)NC(=O)[C@H](CCCN=C(N)N)NC(=O)CNC(=O)[C@H](CC(C)C)NC(=O)[C@H](C)NC(=O)[C@H](CCCN=C(N)N)NC(=O)[C@H](CC(C)C)NC(=O)CNC(=O)[C@@H](N)CCCN=C(N)N)C(=O)N[C@@H](C)C(=O)N[C@@H](Cc1cnc[nH]1)C(=O)NCC(=O)N[C@H](C(=O)N[C@@H](CCCCN)C(=O)N[C@@H](C)C(=O)N[C@@H](Cc1ccc(O)cc1)C(=O)NCC(=O)O)C(C)C` : 20.8

---

Candida albicans ATCC 90028 data, read-out log10 of MIC
Remember, log10 of MIC, in µM.

Molecule	Reported Value
CC[C@H](C)[C@@H]1NC(=O)CNC(=O)[C@H](CCCN=C(N)N)NC(=O)[C@H](Cc2ccc(O)cc2)NC(=O)[C@@H](NC(=O)[C@@H](NC(=O)[C@H](CCCN=C(N)N)NC(=O)[C@H](Cc2ccccc2)NC(=O)[C@H](CO)NC(=O)[C@H](Cc2c[nH]c3ccccc23)NC(=O)[C@@H](N)CCCCN)C(C)C)CSSC[C@@H](C(=O)N[C@@H](Cc2ccc(O)cc2)C(=O)N[C@@H](CCCN=C(N)N)C(=O)N[C@@H](CCCN=C(N)N)C(=O)N[C@@H](C)C(=O)N[C@@H](CCCN=C(N)N)C(=O)O)NC1=O [KWSFRVCYRGICYRRAR]	0.26

Response field log10 of MIC (Candida albicans ATCC 90028) for item CC[C@H](C)[C@H](NC(=O)[C@H](CCCN=C(N)N)NC(=O)[C@H](C)NC(=O)[C@@H](NC(=O)[C@@H](NC(=O)[C@H](CCCN=C(N)N)NC(=O)[C@@H](N)CCCCN)[C@@H](C)CC)C(C)C)C(=O)N[C@@H](CCCCN)C(=O)N[C@@H](CC(=O)O)C(=O)N[C@@H](Cc1ccccc1)C(=O)N[C@@H](CC(C)C)C(=O)N[C@@H](CCCN=C(N)N)C(=O)O [KRIVARIKDFLR] : 1.30

Response field log10 of MIC (Candida albicans ATCC 90028) for item CC(C)C[C@H](NC(=O)[C@H](C)NC(=O)CNC(=O)[C@H](CC(C)C)NC(=O)[C@H](CC(C)C)NC(=O)[C@H](CCCCN)NC(=O)[C@H](CCCCN)NC(=O)[C@H](CC(C)C)NC(=O)[C@H](CC(C)C)NC(=O)[C@H](CCCCN)NC(=O)[C@H](CC(C)C)NC(=O)[C@H](CC(C)C)NC(=O)[C@@H](N)CCCCN)C(=O)NCC(N)=O [KLLKLLKKLLGALG] : 1.04

Response field log10 of MIC (Candida albicans ATCC 90028) for item CSCC[C@H](NC(=O)[C@H](Cc1ccccc1)NC(=O)CNC(=O)[C@H](Cc1cnc[nH]1)NC(=O)[C@H](CC(C)C)NC(=O)[C@H](CO)NC(=O)CN)C(=O)N[C@@H](Cc1ccc(O)cc1)C(=O)N[C@@H](CCCCN)C(=O)N[C@@H](Cc1ccc(O)cc1)C(=O)N[C@@H](CC(C)C)C(=O)N[C@@H](CCCCN)C(=O)N[C@@H](CC(N)=O)C(=O)N[C@@H](CCSC)C(=O)N[C@H](C(=O)N[C@@H](CC(C)C)C(=O)N[C@H](C(=O)N[C@@H](CC(C)C)C(=O)N[C@@H](Cc1ccccc1)C(N)=O)[C@@H](C)O)C(C)C [GSLHGFMYKYLKNMVLTLF] : 1.20

Response field log10 of MIC (Candida albicans ATCC 90028) for item CSCC[C@H](NC(=O)[C@H](CCCCN)NC(=O)[C@H](Cc1ccc(O)cc1)NC(=O)[C@H](C)NC(=O)[C@H](CCC(=O)O)NC(=O)[C@H](CC(C)C)NC(=O)[C@H](CC(C)C)NC(=O)[C@H](CCCN=C(N)N)NC(=O)[C@H](CC(N)=O)NC(=O)[C@H](C)N)C(=O)N[C@@H](CC(C)C)C(=O)N[C@@H](CC(C)C)C(=O)N[C@@H](CCCCN)C(=O)N[C@@H](Cc1ccccc1)C(=O)N[C@@H](CC(C)C)C(=O)NCC(=O)N[C@@H](CC(N)=O)C(=O)N[C@@H](CC(C)C)C(=O)N[C@@H](CCCN=C(N)N)C(N)=O [ANRLLEAYKMLLKFLGNLR] : 0.60

---

Candida albicans F7-39/IDE99 data, read-out MIC
Numbers only; they are read as µM.

Mol	Reported Value
CC[C@H](C)[C@H](NC(=O)[C@H](CC(C)C)NC(=O)[C@H](Cc1cnc[nH]1)NC(=O)CNC(=O)[C@H](CC(C)C)NC(=O)[C@@H](NC(=O)[C@H](CCCCN)NC(=O)[C@H](CO)NC(=O)[C@H](Cc1c[nH]c2ccccc12)NC(=O)[C@H](CCCCN)NC(=O)CN)[C@@H](C)CC)C(=O)N[C@@H](CCCN=C(N)N)C(N)=O	7.4
CC[C@H](C)[C@H](NC(=O)[C@H](CC(C)C)NC(=O)[C@H](CCCCN)NC(=O)[C@@H](NC(=O)[C@@H](NC(=O)[C@H](CCCCN)NC(=O)[C@@H]1CCCN1C(=O)[C@H](CC(C)C)NC(=O)[C@@H](NC(=O)[C@H](CCCCN)NC(=O)[C@H](C)NC(=O)[C@H](CC(C)C)NC(=O)[C@H](CC(C)C)NC(=O)[C@H](CO)NC(=O)[C@H](C)NC(=O)[C@H](CCSC)NC(=O)CN)C(C)C)C(C)C)C(C)C)C(=O)N[C@@H](CCCCN)C(=O)O	12.1

Consider the record given below.
Response field MIC (Candida albicans F7-39/IDE99) for item `CSCC[C@H](NC(=O)CNC(=O)[C@H](Cc1ccccc1)NC(=O)[C@@H](N)CC(C)C)C(=O)N[C@@H](C)C(=O)N[C@@H](CC(C)C)C(=O)N[C@@H](CCCCN)C(=O)N[C@@H](CC(C)C)C(=O)N[C@@H](CC(C)C)C(=O)N[C@@H](CCCCN)C(=O)N[C@@H](CCCCN)C(=O)N[C@H](C(=O)N[C@@H](CC(C)C)C(N)=O)C(C)C` : 10

---

tested on: Escherichia coli NCTC 10418
Reported Metric: MIC

Response field MIC (Escherichia coli NCTC 10418) for item `NCCCC[C@H](NC(=O)[C@H](Cc1ccccc1)NC(=O)[C@H](CCCCN)NC(=O)[C@@H](N)Cc1ccccc1)C(=O)N[C@@H](Cc1ccccc1)C(N)=O` : ≥ 179 µM

---

Bacillus subtilis data, read-out MIC

Solved cases (2 shown):
Mol	MIC
CC[C@H](C)[C@H](N)C(=O)N[C@@H](CC(N)=O)C(=O)N[C@@H](Cc1c[nH]c2ccccc12)C(=O)N[C@@H](CCCCN)C(=O)N[C@@H](CCCCN)C(=O)N[C@H](C(=O)N[C@@H](C)C(=O)N[C@@H](CO)C(=O)N[C@H](C(=O)NCC(=O)N[C@@H](CCCCN)C(=O)N[C@@H](CCC(=O)O)C(=O)N[C@H](C(=O)N[C@@H](CC(C)C)C(N)=O)C(C)C)[C@@H](C)CC)[C@@H](C)CC	≥ 100 µM
CC(C)C[C@H](NC(=O)[C@H](C)NC(=O)CNC(=O)[C@H](CC(C)C)NC(=O)[C@@H](N)Cc1ccccc1)C(=O)N[C@@H](Cc1ccccc1)C(=O)N[C@@H](CCCCN)C(=O)N[C@H](C(=O)N[C@@H](C)C(=O)N[C@@H](CO)C(=O)N[C@@H](CCCCN)C(=O)O)C(C)C	≥ 169 µM

Consider the record given below.
Value of measured MIC for the entry `CC(C)C[C@H](NC(=O)[C@@H](NC(=O)[C@H](CCCCN)NC(=O)[C@H](CO)NC(=O)[C@H](C)NC(=O)[C@@H](NC(=O)[C@H](CCCCN)NC(=O)[C@H](Cc1ccccc1)NC(=O)[C@H](CC(C)C)NC(=O)[C@H](C)NC(=O)[C@H](CCCCN)NC(=O)[C@H](CC(C)C)NC(=O)[C@@H](N)Cc1ccccc1)C(C)C)C(C)C)C(=O)O` : 8.54 µM
